Tgt: D3 (Homo sapiens (Human))
Sequence (P35462 whole entry, looked up): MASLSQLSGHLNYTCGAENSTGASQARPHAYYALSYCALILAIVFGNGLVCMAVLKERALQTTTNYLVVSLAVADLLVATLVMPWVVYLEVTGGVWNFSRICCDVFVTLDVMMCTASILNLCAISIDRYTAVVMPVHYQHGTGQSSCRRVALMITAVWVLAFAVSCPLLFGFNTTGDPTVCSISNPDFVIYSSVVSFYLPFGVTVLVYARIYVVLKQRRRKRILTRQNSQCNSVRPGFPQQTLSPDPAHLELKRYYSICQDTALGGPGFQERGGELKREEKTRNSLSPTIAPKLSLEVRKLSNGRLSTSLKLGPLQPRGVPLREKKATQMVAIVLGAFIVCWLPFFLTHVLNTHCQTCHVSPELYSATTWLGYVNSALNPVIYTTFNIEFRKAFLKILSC
Assay Comment: radioligand competition binding assay (Psychiatric Drug Screening Program)
Measure Name: pKi
Answers are plain numbers, as −log10 of the molar value.

# query: pKi of entry CN(C)CCc1c[nH]c2cccc(O)c12
7.00

---

Tgt: a1A (Homo sapiens (Human), UniProt P35348)
Sequence (P35348 whole entry, looked up): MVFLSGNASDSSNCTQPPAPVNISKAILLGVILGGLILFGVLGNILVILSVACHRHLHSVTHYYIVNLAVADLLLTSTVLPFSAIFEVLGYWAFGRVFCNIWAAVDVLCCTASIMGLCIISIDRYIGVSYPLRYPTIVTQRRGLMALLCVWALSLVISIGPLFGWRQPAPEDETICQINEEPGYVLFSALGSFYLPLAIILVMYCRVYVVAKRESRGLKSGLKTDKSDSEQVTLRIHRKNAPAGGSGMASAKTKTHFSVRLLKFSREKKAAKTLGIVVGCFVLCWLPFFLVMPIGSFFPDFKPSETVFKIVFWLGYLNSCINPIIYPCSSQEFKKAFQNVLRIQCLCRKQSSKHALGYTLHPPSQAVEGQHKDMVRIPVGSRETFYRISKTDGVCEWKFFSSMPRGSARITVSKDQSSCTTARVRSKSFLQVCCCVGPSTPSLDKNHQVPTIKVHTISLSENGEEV
Assay Comment: radioligand competition binding assay (Psychiatric Drug Screening Program)
Study Conditions: read-out: Ki (nM) a1A
Measure Name: Ki

Fill blank: measured Ki of the compound COc1cc(C(F)(F)F)c(OC)cc1[C@@H]1CCCNC1.Cl [Compound 8, hydrochloride] is ____.
> 10000 nM

---

Tgt: 5-HT2C (Homo sapiens (Human))
Sequence (P28335 whole entry, looked up): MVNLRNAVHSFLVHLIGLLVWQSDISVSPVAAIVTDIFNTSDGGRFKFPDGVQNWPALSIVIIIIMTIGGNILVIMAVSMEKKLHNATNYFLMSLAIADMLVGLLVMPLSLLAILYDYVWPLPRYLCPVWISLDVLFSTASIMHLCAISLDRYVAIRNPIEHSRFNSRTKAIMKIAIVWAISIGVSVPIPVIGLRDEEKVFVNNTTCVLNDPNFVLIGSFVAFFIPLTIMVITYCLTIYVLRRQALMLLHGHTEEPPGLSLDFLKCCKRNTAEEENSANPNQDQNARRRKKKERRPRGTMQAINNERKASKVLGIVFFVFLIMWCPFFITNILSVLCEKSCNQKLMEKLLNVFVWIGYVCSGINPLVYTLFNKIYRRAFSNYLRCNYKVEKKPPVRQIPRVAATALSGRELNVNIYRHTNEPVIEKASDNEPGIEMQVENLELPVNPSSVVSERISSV
Assay Comment: IP assay (Eurofins, IP1 HTRF), HEK293 cells
Assay type: cell-based
So I've got a bunch of compounds here, and I need their pEC50 values.
Numbers only, as −log10 of the molar value.

Example entries begin here.
In [3]: df
Out[3]:
                                   compound                            tgt  result_number
0  COc1cc(CCNCc2ccccc2O)c(OC)cc1C#N [Compound 25CN-NBOH]  5-HT2C (Homo sapiens (Human))           7.57
1  COc1cc(CC(C)N)c(OC)cc1I (stereo not drawn) [DOI, 2,5-Dimethoxy-4-iodoamphetamine, reference compound]  5-HT2C (Homo sapiens (Human))           8.04

Turning to the following compound.
Given the entry COc1cc(C(F)(F)F)c(OC)cc1CCN [Compound 2C-TFM, reference compound] , report its measured pEC50.
8.42

---

Tgt: human 5-HT2A (Homo sapiens (Human), UniProt P28223)
Assay Comment: cell-based
Format: cell-based
Study Conditions: agonist potency, n = 3-4; read-out: 5-HT2A EC50
Structures can show the parent of a compound that is named as a salt.
Measure Name: EC50 (nM)
Give bare numbers, in nM.

Worked cases, EC50 given:
In [3]: df
Out[3]:
                                   molecule                                       tgt  measure_name  measurement_units  result_number
0  COc1cc(C(F)(F)F)c(OC)cc1[C@@H]1CNC[C@@H](C)C1.Cl (relative stereo) [Compound 36, hydrochloride]  human 5-HT2A (Homo sapiens (Human), UniProt P28223)          EC50                 nM             48
1  CCCCc1cc(OC)c([C@H]2CCCNC2)cc1OC [Compound 56, hydrochloride]  human 5-HT2A (Homo sapiens (Human), UniProt P28223)          EC50                 nM            340

# return EC50 for each item in the list
1. CCc1cc(OC)c([C@H]2CCCNC2)cc1OC [Compound 31, hydrochloride]
2. COc1cc([C@H]2CCCNC2)c(OC)cc1C [Compound 23, hydrochloride]
3. CCOc1cc(C(F)(F)F)c(OC)cc1[C@H]1CCCNC1.Cl [Compound 29, hydrochloride]
4. COc1cc([C@H]2CCCNC2)c(OC)cc1C#N
5. COc1cc(C(F)(F)F)c(F)cc1[C@H]1CCCNC1.Cl [Compound 50, hydrochloride]
6. COc1cc([C@H]2CCNC2)c(OC)cc1Br
7. CCOc1cc([C@H]2CCCNC2)c(OC)cc1C(F)(F)F.Cl [Compound 19, hydrochloride]
8. COc1cc([C@@H]2CCCNC2)c(OC)cc1C.Cl [Compound 24, hydrochloride]

1: 110; 2: 260; 3: 410; 4: 2200; 5: 640; 6: 5.3; 7: 320; 8: 100
